- Tested on: MS2 coat protein
- procedureSummary: apparent KD of MS2 coat protein; designed switch direction (-1 OFF switch, 1 ON switch): 1; higher = weaker reporter binding
- measurementSetup: Eterna round: R95; input ligand: microRNA oligo, concentration not stated
Parameter threshold = 40 nM. Response is Satisfied when apparent KD of MS2 coat protein meets or exceeds it, else Not satisfied.

- chainSequence: "UUAGCACAUGAGGAUCACCCAUGUACUAUACUCAUAGGAUAUACAAAGUCUUAAGACGUGGUAGAAGGGUGAGGAA [Zaateddi] (puzzle: Same State 1)"
  group: "Satisfied"
- chainSequence: "CGUCCGGCCUGAGCUGGACGGAAGCAUGUACAUGAGGAUCACCCAUGUUCAUGUGCAGGCUUUUUGCUCGUCUUGUG [JL-shm-2.08 JL mod] (puzzle: Sensor for hsa-mir-208a)"
  group: "Not satisfied"
- chainSequence: "AUAUAACAUGAGGAUCACCCAUGUCUCUAAAGUCGAGGAUAUGGGCAGGUUAUAUCCGAACCAGAAGGCGAAUUAU [SS1 Teenbexe 5] (puzzle: Same State 1)"
  group: "Satisfied"
- chainSequence: "GGUCCAGCCUGAGCUGGACAAAAGCAUGUACAUGAGGAUCACCCAUGUCAUGUACAAGCUUUUUGCUCGUCUAAAUG [Mat - hsa-mir-208a - 93] (puzzle: Sensor for hsa-mir-208a)"
  group: "Not satisfied"
- chainSequence: "CAGCGCUGUCGAGAGGAUAUGCGGUGAUGGACAUGAGGAUCACCCAUGUUAGCGAUAGCAUUACGGUAGAAGGCUCUGCAGCUGC [Soteed - 1] (puzzle: Same State 2)"
  group: "Satisfied"
- chainSequence: "UCUUGGUUUUUGCUCGUUUUUUGUGUUGAACAUGAGGAUCACCCAUGUAUUGUACGGUCCGAUUUAAUAAUGGUCCA [JMF 38] (puzzle: Sensor for hsa-mir-208a)"
  group: "Not satisfied"
- chainSequence: "AAUUCACGAGCACAGGAUAUGCUUGCCAACACAUGAGGAUCACCCAUGUCGGGCUACUAAUAAGAGCAGAAGGGUGACUCAUGAU [Esticece] (puzzle: Same State 2)"
  group: "Satisfied"
- chainSequence: "UUUGGGUGGCUGGAGGAUAUUCGAGUGGUUACAUGAGGAUCACCCAUGUGUCGCGCGGUACGCGAGGAGAAGGCUGGCGGCCGUU (puzzle: Same State 2)"
  group: "Satisfied"
- chainSequence: "GGUCCAGCCUGAGCUGGACUAUAGCAUGUACAUGAGGAUCACCCAUGUCAUGUACAAGUAUGUUGUUUGUCUUGAAA [Sensorship 6 - Jieux - Sensor for hsa-mir-208a] (puzzle: Sensor for hsa-mir-208a)"
  group: "Not satisfied"
- chainSequence: "GGAGCUGGCACCGAGGAUAUUCAUAUUAAAACAUGAGGAUCACCCAUGUAGGCCAGAAGGCCUUGGGAGAAGGCGGAUCAGCUCG [Xeonanis - 12] (puzzle: Same State 2)"
  group: "Satisfied"
- chainSequence: "GCGCAGCUGAGUGAGGAUAUCGGUGGUAAAACAUGAGGAUCACCCAUGUCCGAAGCUCGGACUUCCGAGAAGGCACCCGGCUGCA [Inisusbeor] (puzzle: Same State 2)"
  group: "Satisfied"
- chainSequence: "GUAGAAUAACUAGAGGAUAUCCGAGUGGUAACAUGAGGAUCACCCAUGUGAUGAAAGGAACAUGAGGAGAAGGCUAGAAUGAAUG [Mat - Same State 2 - Mod of JL - D84] (puzzle: Same State 2)"
  group: "Not satisfied"
- chainSequence: "AACAAUCUAUCUGAGGAUAUCAUGAGAAUAACAUGAGGAUCACCCAUGUGCAGGAAAACUGCAUAUGAGAAGGCAGAUAGAUUGG [Mat - Same State 2 - Mod - D21] (puzzle: Same State 2)"
  group: "Satisfied"
- chainSequence: "GUGCAACCGUGUGAGGAUAUCGGUGAUCAGACAUGAGGAUCACCCAUGUCCGAAGCUCGGAUCUCCGAGAAGGCGCACAGUUGCA [Same State 2 - Mod of Erisin v.6] (puzzle: Same State 2)"
  group: "Satisfied"
- chainSequence: "AUAAGUUUGAUGCUCGUCUCUCCGUACAAACAUGAGGAUCACCCAUGUGGUCGGGAAGUAGCCCGGCCGGUAUGGCC [Atusri] (puzzle: Sensor for hsa-mir-208a)"
  group: "Not satisfied"
- chainSequence: "UACAAUCUAUCUGAGGAUAUCAUGAUAAUAACAUGAGGAUCACCCAUGUGCAGGAAAACUGCAUAUGAGAAGGCAGAUAGAUUGA [Mat - Same State 2 - Mod - D13] (puzzle: Same State 2)"
  group: "Satisfied"
- chainSequence: "CGUUCUUACUCGGUACGGUGAGUAGAGGAACAUGAGGAUCACCCAUGUUUGAGCUUUUUGCUCGUGAUUAACAGUUG [JR_SHM208a_Sub015] (puzzle: Sensor for hsa-mir-208a)"
  group: "Satisfied"
- chainSequence: "UCUUGGUUUUUGCUCGUUUUUUGUGUUGAACAUGAGGAUCACCCAUGUAUUGUACGGUCCAGUUUAGUAAUGGUCCA [JMF 7] (puzzle: Sensor for hsa-mir-208a)"
  group: "Not satisfied"
- chainSequence: "AGUCCAGCCUGAGCUGGACAAAAGCAUGUACAUGAGGAUCACCCAUGUUCAUGUACAAGCUUUUUGCUCGUCUUACC [salish99_208a_r3_079] (puzzle: Sensor for hsa-mir-208a)"
  group: "Not satisfied"
- chainSequence: "CCGCGGGUAUCACAGGAUAUACUCAUAAUUACAUGAGGAUCACCCAUGUGACGGAAUUCCGGUGCGUAGAAGGGUGAUGGACCGC [Onquorbe] (puzzle: Same State 2)"
  group: "Satisfied"
